These data points were gathered from BindingDB's records for doi:10.1016/j.bioorg.2014.02.001.

target: Mitogen-activated protein kinase 1 (Homo sapiens); assay: EGFR, MAPK and PDK Inhibitory Acitivity Assay; conditions: pH 7
Sequence (P28482 whole entry): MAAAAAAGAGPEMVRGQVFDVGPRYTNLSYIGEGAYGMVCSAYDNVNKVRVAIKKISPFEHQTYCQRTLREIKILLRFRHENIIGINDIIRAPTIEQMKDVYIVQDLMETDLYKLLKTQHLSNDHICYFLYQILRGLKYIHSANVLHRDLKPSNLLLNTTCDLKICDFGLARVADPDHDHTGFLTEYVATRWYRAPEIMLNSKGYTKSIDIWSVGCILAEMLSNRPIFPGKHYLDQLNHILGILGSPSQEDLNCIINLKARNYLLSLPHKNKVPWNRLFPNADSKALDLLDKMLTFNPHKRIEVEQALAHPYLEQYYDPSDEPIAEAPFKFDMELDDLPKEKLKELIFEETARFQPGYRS
pIC50: −log10 of the molar value.

{"columns": ["Smiles Notation", "pIC50"],
 "data": [
  ["COc1ccc(C(=O)c2ccc(=O)n(CCN(C)C)c2)c(O)c1", "< 3.52"]
]}

---

Target: 3-phosphoinositide-dependent protein kinase 1 (Homo sapiens)
Sequence (O15530 whole entry): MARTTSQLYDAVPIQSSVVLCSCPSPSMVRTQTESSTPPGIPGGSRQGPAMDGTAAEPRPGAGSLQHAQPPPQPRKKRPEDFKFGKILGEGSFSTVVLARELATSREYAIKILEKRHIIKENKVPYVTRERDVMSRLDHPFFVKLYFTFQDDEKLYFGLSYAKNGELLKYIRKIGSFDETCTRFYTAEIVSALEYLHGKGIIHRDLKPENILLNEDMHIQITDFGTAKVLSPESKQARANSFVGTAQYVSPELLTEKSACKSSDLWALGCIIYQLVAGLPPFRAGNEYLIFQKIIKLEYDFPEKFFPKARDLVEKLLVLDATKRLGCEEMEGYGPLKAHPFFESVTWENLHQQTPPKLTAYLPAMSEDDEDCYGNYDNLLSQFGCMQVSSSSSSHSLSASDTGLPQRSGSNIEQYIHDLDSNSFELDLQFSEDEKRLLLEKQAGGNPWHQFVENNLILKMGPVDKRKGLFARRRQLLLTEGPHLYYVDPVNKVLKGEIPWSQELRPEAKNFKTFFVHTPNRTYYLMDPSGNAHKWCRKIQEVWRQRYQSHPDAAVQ

{"columns": ["Smiles Notation", "IC50"],
 "data": [
  ["COc1ccc(C(=O)c2ccc(=O)n(CCN(C)C)c2)c(O)c1", "> 300 µM"]
]}

---

biological target: Epidermal growth factor receptor [1-973] (Homo sapiens)
Sequence (P00533 1-973): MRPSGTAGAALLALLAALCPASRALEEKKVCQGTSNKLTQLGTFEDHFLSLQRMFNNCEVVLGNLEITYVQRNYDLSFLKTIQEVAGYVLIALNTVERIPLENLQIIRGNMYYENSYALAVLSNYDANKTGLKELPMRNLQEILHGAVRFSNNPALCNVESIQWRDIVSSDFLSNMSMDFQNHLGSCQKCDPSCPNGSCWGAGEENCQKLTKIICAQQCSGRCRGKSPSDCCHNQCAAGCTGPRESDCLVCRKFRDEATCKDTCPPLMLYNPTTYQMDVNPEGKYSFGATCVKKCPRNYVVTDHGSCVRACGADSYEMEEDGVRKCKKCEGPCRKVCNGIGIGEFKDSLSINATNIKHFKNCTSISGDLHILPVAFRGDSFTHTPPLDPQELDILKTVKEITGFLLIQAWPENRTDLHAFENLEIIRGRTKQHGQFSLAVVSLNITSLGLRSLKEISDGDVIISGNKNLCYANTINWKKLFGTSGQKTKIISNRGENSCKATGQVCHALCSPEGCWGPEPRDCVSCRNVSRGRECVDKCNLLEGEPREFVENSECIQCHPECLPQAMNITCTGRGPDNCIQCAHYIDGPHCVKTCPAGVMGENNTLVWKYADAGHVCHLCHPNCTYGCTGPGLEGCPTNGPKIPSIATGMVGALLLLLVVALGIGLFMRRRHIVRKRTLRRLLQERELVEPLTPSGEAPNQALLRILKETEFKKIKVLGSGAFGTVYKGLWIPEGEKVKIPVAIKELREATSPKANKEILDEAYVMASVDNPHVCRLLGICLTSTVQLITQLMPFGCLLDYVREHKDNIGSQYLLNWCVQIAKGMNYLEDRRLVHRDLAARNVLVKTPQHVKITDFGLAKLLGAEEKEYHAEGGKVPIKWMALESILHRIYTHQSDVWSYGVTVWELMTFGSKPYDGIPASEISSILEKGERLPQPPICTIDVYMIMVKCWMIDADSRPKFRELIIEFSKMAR
Endpoint Label: IC50

{"columns": ["Smiles Notation", "Test System", "Value Measured"],
 "data": [
  ["COc1ccc(C(=O)c2ccc(=O)n(CCN(C)C)c2)c(O)c1", "Epidermal growth factor receptor [1-973] (Homo sapiens)", "> 300 µM"]
]}

---

biological target: Proto-oncogene tyrosine-protein kinase Src (c-Src); assay: The kinase reaction was initiated with the incubation of the 2.5 µL of the reaction cocktail (0.7 nM of His6-Src kinase domain in kinase buffer) with 2.5 µL of prediluted compounds (dissolved in 10% DMSO, 4X target concentration) for 10 min at room temperature. The reaction cocktail contained 200 mM HEPES (pH 7.5), 16 mM MgC

{"columns": ["Smiles Notation", "Test System", "IC50 [µM]"],
 "data": [
  ["O=c1ccc(/C(=N\\C2CCCCC2)c2ccccc2O)cn1C1CCCCC1", "Proto-oncogene tyrosine-protein kinase Src (c-Src)", 20.1],
  ["CC(C)n1cc(C(=O)c2ccccc2O)ccc1=O", "Proto-oncogene tyrosine-protein kinase Src (c-Src)", 21.8],
  ["CCCCCCn1cc(C(=O)c2ccc(OC)cc2O)ccc1=O", "Proto-oncogene tyrosine-protein kinase Src (c-Src)", 34.1],
  ["COc1ccc(O)c(C(=O)c2ccc(=O)n(C3CCCCC3)c2)c1", "Proto-oncogene tyrosine-protein kinase Src (c-Src)", 24.8],
  ["O=C(c1ccc(=O)n(C2CCCCC2)c1)c1ccccc1O", "Proto-oncogene tyrosine-protein kinase Src (c-Src)", 25.4],
  ["CC(C)/N=C(\\c1ccc(=O)n(C(C)C)c1)c1ccccc1O", "Proto-oncogene tyrosine-protein kinase Src (c-Src)", 37.9],
  ["CCCCCCn1cc(C(=O)c2cc(OC)ccc2O)ccc1=O", "Proto-oncogene tyrosine-protein kinase Src (c-Src)", 23.5],
  ["COc1ccc(C(=O)c2ccc(=O)n(CCN(C)C)c2)c(O)c1", "Proto-oncogene tyrosine-protein kinase Src (c-Src)", 12.5],
  ["CN(C)CCn1cc(C(=O)c2ccccc2O)ccc1=O", "Proto-oncogene tyrosine-protein kinase Src (c-Src)", 28.2],
  ["CCCCCCn1cc(C(=O)c2ccc(O)cc2O)ccc1=O", "Proto-oncogene tyrosine-protein kinase Src (c-Src)", 27.7],
  ["CCCCCCn1cc(C(=O)c2cc(O)ccc2O)ccc1=O", "Proto-oncogene tyrosine-protein kinase Src (c-Src)", 22.1],
  ["CC(C)n1cc(C(=O)c2cc(O)ccc2O)ccc1=O", "Proto-oncogene tyrosine-protein kinase Src (c-Src)", 26.1],
  ["COc1ccc(C(=O)c2ccc(=O)n(CCNC(=O)OC(C)(C)C)c2)c(O)c1", "Proto-oncogene tyrosine-protein kinase Src (c-Src)", 27.6],
  ["COc1ccc(C(=O)c2ccc(=O)n(CCO)c2)c(O)c1", "Proto-oncogene tyrosine-protein kinase Src (c-Src)", 19.9],
  ["COc1ccc(O)c(C(=O)c2ccc(=O)n(CCNC(=O)OC(C)(C)C)c2)c1", "Proto-oncogene tyrosine-protein kinase Src (c-Src)", 21.9],
  ["CCCCCCn1cc(C(=O)c2ccccc2O)ccc1=O", "Proto-oncogene tyrosine-protein kinase Src (c-Src)", 28.1],
  ["CC(C)(C)OC(=O)NCCn1cc(C(=O)c2ccc(O)cc2O)ccc1=O", "Proto-oncogene tyrosine-protein kinase Src (c-Src)", 57.8],
  ["COc1ccc(C(=O)c2ccc(=O)n(C(C)C)c2)c(O)c1", "Proto-oncogene tyrosine-protein kinase Src (c-Src)", 47]
]}
